Test system: human red blood cells
Method summary: Hemolytic assay
Assay type: cell-based
Settings: red cells of human, 10
Peptide text beside a SMILES is read from it. * marks the point of attachment. Acm = CC(=O)NC*
Each entry below carries its reported % Hemolysis 10 μg/ml.

[in] % Hemolysis 10 μg/ml lookup needed for CSCC[C@H](NC(=O)[C@H](CCCNC(=N)N)NC(=O)[C@H](Cc1c(S(=O)(=O)c2c(C)c(C)c3c(c2C)CCC(C)(C)O3)[nH]c2ccccc12)NC(=O)[C@H](CCC(N)=O)NC(=O)[C@H](Cc1c[nH]c2ccccc12)NC(=O)[C@H](CCCNC(=N)N)NC(=O)[C@H](CCCNC(=N)N)NC(=O)[C@H](CSCNC(C)=O)NC(=O)[C@H](CCCCN)NC(=O)[C@@H](N)Cc1ccccc1)C(=O)N[C@@H](CCCCN)C(=O)N[C@@H](CCCCN)C(=O)N[C@@H](CC(C)C)C(=O)NCC(=O)N[C@@H](C)C(=O)O , thanks.
[out] 3.6%

[in] % Hemolysis 10 μg/ml lookup needed for CSCC[C@H](NC(=O)[C@H](CCC(=O)O)NC(=O)[C@H](CC(N)=O)NC(=O)[C@H](CCC(N)=O)NC(=O)[C@H](Cc1c[nH]c2ccccc12)NC(=O)[C@H](CCCNC(=N)N)NC(=O)[C@H](CC(C)C)NC(=O)[C@H](CSCNC(C)=O)NC(=O)[C@H](CCCCN)NC(=O)[C@@H](N)CCC(=O)O)C(=O)N[C@@H](CCCNC(=N)N)C(=O)N[C@@H](CCCCN)C(=O)N[C@H](C(=O)NCC(=O)NCC(=O)O)C(C)C [LFM, EKCLRWQNEMRKVGG] (H-EKC(Acm)LRWQNEMRKVGG-OH; N-terminus assumed) , thanks.
[out] 2.3%

[in] % Hemolysis 10 μg/ml lookup needed for CSCC[C@H](NC(=O)[C@H](CCCNC(=N)N)NC(=O)[C@H](Cc1c[nH]c2ccccc12)NC(=O)[C@H](CCC(N)=O)NC(=O)[C@H](Cc1c[nH]c2ccccc12)NC(=O)[C@H](CCCNC(=N)N)NC(=O)[C@H](Cc1ccccc1)NC(=O)[C@H](CSCNC(C)=O)NC(=O)[C@H](CCCCN)NC(=O)[C@@H](N)Cc1ccccc1)C(=O)N[C@@H](CCCCN)C(=O)N[C@@H](CCCCN)C(=O)N[C@@H](CC(C)C)C(=O)NCC(=O)N[C@@H](C)C(=O)O [LFB F4] (H-FKC(Acm)FRWQWRMKKLGA-OH; N-terminus and C-terminus assumed) , thanks.
[out] 2.4%

[in] % Hemolysis 10 μg/ml lookup needed for CSCC[C@H](NC(=O)[C@H](CCCNC(=N)N)NC(=O)[C@H](Cc1c[nH]c2ccccc12)NC(=O)[C@H](CCC(N)=O)NC(=O)[C@H](Cc1c(S(=O)(=O)c2c(C)c(C)c3c(c2C)CCC(C)(C)O3)[nH]c2ccccc12)NC(=O)[C@H](CCCNC(=N)N)NC(=O)[C@H](CCCNC(=N)N)NC(=O)[C@H](CSCNC(C)=O)NC(=O)[C@H](CCCCN)NC(=O)[C@@H](N)Cc1ccccc1)C(=O)N[C@@H](CCCCN)C(=O)N[C@@H](CCCCN)C(=O)N[C@@H](CC(C)C)C(=O)NCC(=O)N[C@@H](C)C(=O)O , thanks.
[out] 3.4%
